Assay: Intrinsic clearance in human liver microsomes
Type: ADME, Microsome
Details: read-out: CLH
Hi there, I'd appreciate the recorded microsomal CLint for every entry that follows.

Please review the entries below; each comes with its answer.
smiles structure: Cc1noc2c1-c1sc(C)c(C)c1C(c1ccccc1)=N[C@H]2CC(N)=O
test value: 2.4 µL/min/mg

smiles structure: Cc1noc2c1-c1sc(C)c(C)c1C(c1ccc(N)nc1)=N[C@H]2CC(N)=O
test value: 5.4 µL/min/mg

smiles structure: Cc1noc2c1-c1sc(C)c(C)c1C(c1ccc(C#N)cc1)=N[C@H]2CC(N)=O
test value: 4.6 µL/min/mg

Here is the next item to consider.
Query string: Would you mind telling me what microsomal CLint value was observed for `Cc1noc2c1-c1sc(C)c(C)c1C(c1ccc(Cl)cc1)=N[C@H]2CC(N)=O` ?
Result string: 5.5 µL/min/mg

====

Target: Bromodomain-containing protein 4 (Homo sapiens)
Test: Inhibition of His-FLAG-tagged BRD4 binding domain1 (unknown origin) binding to H4-TetraAc-biotin peptide after 20 mins by AlphaLISA
pIC50: −log10 of the molar value.
Answer Criterion not met if pIC50 is under 7, and Criterion met if it is 7 or more.

smiles structure: Cc1noc2c1-c1sc(C)c(C)c1C(c1ccccc1Cl)=N[C@H]2CC(N)=O
test target: Bromodomain-containing protein 4 (Homo sapiens)
class assignment: Criterion not met
--
smiles structure: Cc1noc2c1-c1sc(C)c(C)c1C(Cc1ccccc1)=N[C@H]2CC(N)=O
test target: Bromodomain-containing protein 4 (Homo sapiens)
class assignment: Criterion not met
--
smiles structure: Cc1noc2c1-c1sc(C)c(C)c1C(c1ccc(Cl)cc1)=N[C@H]2CC(N)=O
test target: Bromodomain-containing protein 4 (Homo sapiens)
class assignment: Criterion met
--
smiles structure: Cc1noc2c1-c1sc(C)c(C)c1C(c1ccc(Cl)cc1)=N[C@H]2CC(=O)OC(C)(C)C
test target: Bromodomain-containing protein 4 (Homo sapiens)
class assignment: Criterion not met
--
smiles structure: CCNC(=O)C[C@@H]1N=C(c2ccc(Cl)cc2)c2c(sc(C)c2C)-c2c(C)noc21
test target: Bromodomain-containing protein 4 (Homo sapiens)
class assignment: Criterion met
--
smiles structure: Cc1cc(Cl)ccc1C1=N[C@@H](CC(N)=O)c2onc(C)c2-c2sc(C)c(C)c21
test target: Bromodomain-containing protein 4 (Homo sapiens)
class assignment: Criterion met
--
smiles structure: Cc1noc2c1-c1sc(C)c(C)c1C(c1cncnc1)=N[C@H]2CC(N)=O
test target: Bromodomain-containing protein 4 (Homo sapiens)
class assignment: Criterion not met

Turning to the following compound.
Query string: Would you say `Cc1noc2c1-c1sc(C)c(C)c1C(c1ccc(Cl)cc1)=N[C@H]2Cc1nccs1` shows pIC50 at minimum 7?
Result string: Criterion not met

====

Hi there, I'd appreciate the recorded inhibition at 10 µM for every entry that follows.
Target: CYP3A4 (Homo sapiens)
Sequence (P08684 whole entry): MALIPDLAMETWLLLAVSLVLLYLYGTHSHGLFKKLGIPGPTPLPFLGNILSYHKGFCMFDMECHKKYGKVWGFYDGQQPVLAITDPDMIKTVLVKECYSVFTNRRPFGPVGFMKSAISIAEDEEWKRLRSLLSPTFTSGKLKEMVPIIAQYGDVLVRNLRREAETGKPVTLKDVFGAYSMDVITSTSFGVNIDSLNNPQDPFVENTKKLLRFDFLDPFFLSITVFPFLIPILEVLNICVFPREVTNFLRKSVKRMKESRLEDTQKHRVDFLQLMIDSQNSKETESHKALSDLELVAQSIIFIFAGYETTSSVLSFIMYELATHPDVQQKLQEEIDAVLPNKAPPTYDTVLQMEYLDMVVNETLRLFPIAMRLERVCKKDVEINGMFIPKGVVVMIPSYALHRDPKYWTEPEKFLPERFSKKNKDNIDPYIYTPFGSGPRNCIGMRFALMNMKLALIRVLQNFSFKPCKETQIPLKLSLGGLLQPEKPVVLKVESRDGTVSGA
Experiment: Inhibition of CYP3A4 (unknown origin) at 10 uM
Format: ADME
One number for each entry, in %.

Please review the entries below; each comes with its answer.
smiles structure: Cc1noc2c1-c1sc(C)c(C)c1C(c1ccc(Cl)cc1)=N[C@H]2CC(N)=O
inhibition at 10 µM [%]: 20
//
smiles structure: Cc1noc2c1-c1sc(C)c(C)c1C(c1ccc(N)nc1)=N[C@H]2CC(N)=O
inhibition at 10 µM [%]: 20

Lab note: each compound below needs its inhibition at 10 µM filled in.
1. Cc1noc2c1-c1sc(C)c(C)c1C(c1ccccc1)=N[C@H]2CC(N)=O
2. Cc1noc2c1-c1sc(C)c(C)c1C(c1ccc(C#N)cc1)=N[C@H]2CC(N)=O

Result string:
1: 1; 2: 0

Recorded values, source ChEMBL document CHEMBL2429789.
